Hello, the source for this data is paper PMC5416816, in case you need it.

# Test target: T1, TIA-1 RRM23L (UniProt P31483-2 80-292)
# T1 sequence: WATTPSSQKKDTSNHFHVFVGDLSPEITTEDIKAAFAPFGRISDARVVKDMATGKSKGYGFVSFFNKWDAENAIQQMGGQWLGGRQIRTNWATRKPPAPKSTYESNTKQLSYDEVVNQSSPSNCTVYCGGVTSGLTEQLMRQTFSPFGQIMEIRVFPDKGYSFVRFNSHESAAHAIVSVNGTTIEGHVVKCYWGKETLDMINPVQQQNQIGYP
# Method description: fluorescence anisotropy
Value kind: Kd (nM)
Write the answer as a number in nM, unit excluded.

For the binder ACUCCUUUUU (ssRNA) [CU-rich RNA] , what Kd is on record?
130
